B1: library; the commonest letter at each place (parent)
chain: MKPVTLYDVAEYAGVSYQTVSRVVNQASHVSAKTREKVEAAMAELNYIPNRVAQQLAGKQSLLIGVATSSLALHAPSQIVAAIKSRADQLGASVVVSMVERSGVEACKAAVHNLLAQRVSGLIINYPLDDQDAIAVEAACTNVPALFLDVSDQTPINSIIFSHEDGTRLGVEHLVALGHQQIALLAGPLSSVSARLRLAGWHKYLTRNQIQPIAEREGDWSAMSGFQQTMQMLNEGIVPTAMLVANDQMALGAMRAITESGLRVGADISVVGYDDTEDSSCYIPPLTTIKQDFRLLGQTSVDRLLQLSQGQAVKGNQLLPVSLVKRKTTLAPNTQTASPRALADSLMQLARQVSRLESGQ

- Variants of: B1
- CONDITIONS_USED: with IPTG
Would you kindly list EC50 for IPTG (log10 µmol/L) for each of these variants?
Numbers only.

Sample answers from the record:
1) Q181H
2.04
2) S97T V136E
1.37
3) V9I R255C E259D T336I R355Q
1.05
4) S69T
1.7

Would you be so kind as to report EC50 for IPTG (log10 µmol/L) for each listed record?
1. M42I R51C
2. L90Q R101G C140G L169Q K290I T329S
3. R51H
4. Q55H D130E V192A T258I D267N Y273H N333I
5. I64V V95M Q131R T141A D152E N208I A222T L295M K327N

1.5
1.57
1.19
2.89
0.469

Would you be so kind as to report EC50 for IPTG (log10 µmol/L) for each listed record?
1. Q317L
2. G121V G261V
3. F161V
4. E100V T299I
5. A87P V301M E357G

[2.05, 1.85, 2.58, 0.987, 2.37]

Where do the numbers come from? From the supplement of paper PMC10057847.
